- test.system: T1, Human Nectin-4 (human, UniProt Q96NY8 32-349, limits assumed)
- T1 construct: Amine-coupled to the Biacore chip; also called target protein; ligand
- T1 sequence: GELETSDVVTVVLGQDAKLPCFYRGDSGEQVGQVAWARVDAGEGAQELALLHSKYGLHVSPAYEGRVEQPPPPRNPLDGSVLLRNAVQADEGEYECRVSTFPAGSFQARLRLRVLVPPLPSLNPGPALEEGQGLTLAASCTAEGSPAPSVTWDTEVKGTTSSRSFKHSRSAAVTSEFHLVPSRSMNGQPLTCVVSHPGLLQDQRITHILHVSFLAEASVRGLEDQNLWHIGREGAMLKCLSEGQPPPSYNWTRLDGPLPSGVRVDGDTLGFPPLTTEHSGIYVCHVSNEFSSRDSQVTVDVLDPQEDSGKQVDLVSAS
- experiment: SPR (Biacore), Nectin-4 immobilised
pKd: −log10 of the molar value. Bridge positions count the residues as written; N and C are the ends. Square brackets hold non-standard residues; d marks the D form. Primed or numbered codes have the meaning given here. Ends that are not written are not given here. * marks the point of attachment. Biotin = O=C1N[C@H]2[C@H](CS[C@H]2CCCCC(=O)*)N1; PEG4′ = polyethylene glycol (PEG4) linker; Lys(Me3) = C[N+](C)(C)CCCC[C@H](N)C(=O)O
Cut-off 8 on pKd, inclusive. At or above means T; below means F.

INSERT INTO measurements (binder, class_name) VALUES
  ('CEYDEEFFAGLKRLRGGDICYYIKKKFDKVPDLCIEEILDKLGC-OH (designed binder, disulfide 1-34, 20-44) [C7]', 'T'),
  ('H-CEDDGEYFAGLQRLYGGDICYYIKLKFPKVPDLCIKEILDKLGC-OH (designed binder, disulfide 1-34, 20-44) [C1]', 'F'),
  ('{Biotin-PEG4′}-CEYDEEFFTALKRLRGGDICEYIQA[Lys(Me3)]FQYLPGLCIEEILDNLGCS-OH (designed binder, disulfide 1-34, 20-44) [C201]', 'T');
